Sourced from patent US20110124666A1

Can you tell me melting point for the items I'm about to list?
Record the result as number plus unit.

Sample answers from the record:
[
  {
    "COMPOUND": "COc1cccc([C@H]2NC(=S)NC3=C2C(=O)c2ccccc23)c1",
    "TEST READOUT": "melting point",
    "RESULT": "252.73 °C"
  },
  {
    "COMPOUND": "O=C1C2=C(NC(=S)NC2c2cccc(OCCCOc3ccc(F)cc3)c2)c2ccccc21 (stereo not shown)",
    "TEST READOUT": "melting point",
    "RESULT": "245.01 °C"
  },
  {
    "COMPOUND": "O=C1C2=C(NC(=S)NC2c2cccc3c2OCO3)c2ccccc21 (stereo not shown)",
    "TEST READOUT": "melting point",
    "RESULT": "289.34 °C"
  }
]

Let us move to another entry and its melting point.
Req: Report melting point, nothing else, for this compound: O=C1C2=C(NC(=S)NC2c2cccc(-c3ccc(C(F)(F)F)cc3)c2)c2ccccc21 (stereo not shown)
Resp: 149.46 °C

----------
Target: hTRPA1 (Homo sapiens)
Assay: Ca2+ fluorometry TRPA1 antagonism in hTRPA1/TREx-HEK293 cells (FDSS)
Settings: 11H-dibenzo[b,e]azepine-10-carboxylic acid methyl ester as TRPA1 agonist (25 nM), hTRPA1-HEK cells, Fluo4-AM
Description: The Human TRPA1 gene was cloned into the pT-REx-Dest30 inducible vector and afterwards stably transfected in T-Rex^TM-293 cells (purchased from Invitrogen, Merelbeke, Belgium). This tetracyclin inducible hTRPA1 expression system was used in order to prevent Ca^2+ overload in the cultured cells due to sustained TRPA1 expression. hTRPAl/TREx-HEK293 cells (referred to as hTRPA1 cells in the following text) were maintained under standard sterile cell culture conditions. […]
pIC50: −log10 of the molar value.
TEST READOUT: pIC50

Sample answers from the record:
[
  {
    "COMPOUND": "O=C1C2=C(NC(=S)NC2c2cccc(CO)c2)c2ccccc21 (centres unmarked)",
    "pIC50": "~6.15"
  },
  {
    "COMPOUND": "O=C1C2=C(NC(=S)NC2c2cccc(OCCCCO)c2)c2ccccc21 (centres unmarked)",
    "pIC50": "~6.16"
  },
  {
    "COMPOUND": "O=C1C2=C(NC(=S)NC2c2cccc(Br)c2)c2ccccc21 (centres unmarked)",
    "pIC50": 6.31
  },
  {
    "COMPOUND": "O=C1C2=C(NC(=S)NC2c2cncc(Br)c2)c2ccccc21 (centres unmarked)",
    "pIC50": 5.78
  },
  {
    "COMPOUND": "O=C1C2=C(NC(=S)NC2c2cccc(O)c2)c2ccccc21 (centres unmarked)",
    "pIC50": "~6.20"
  },
  {
    "COMPOUND": "COCCCOc1cccc([C@@H]2NC(=O)NC3=C2C(=O)c2ccccc23)c1",
    "pIC50": "< 5.00"
  },
  {
    "COMPOUND": "O=C1C2=C(NC(=S)NC2c2cccc(OCCCOc3ccc(F)cc3)c2)c2ccccc21 (centres unmarked)",
    "pIC50": 5.31
  },
  {
    "COMPOUND": "O=C1C2=C(NC(=S)NC2c2cccc(OCCO)c2)c2ccccc21 (centres unmarked)",
    "pIC50": 6.67
  }
]

State recorded pIC50 for all listed compounds.
1. COc1cccc(C2C3=C(NC(=S)N2C)c2ccccc2C3=O)c1 (centres unmarked)
2. COc1cccc(C2NC(=S)NC3=C2C(=O)c2ccccc23)c1F (centres unmarked)
3. COc1cccc(C2NC(=S)NC3=C2C(=O)c2ccccc23)c1 (centres unmarked)

Resp:
< 5.00
~6.54
~6.89

----------
Can you tell me melting point for the items I'm about to list?
Give bare numbers, in °C.

Sample answers from the record:
[
  {
    "MOLECULE": "O=C1C2=C(NC(=S)NC2c2cccc(OCCCCO)c2)c2ccccc21 (stereo not shown)",
    "melting point (°C)": 224.49
  },
  {
    "MOLECULE": "COc1ccc(F)c(C2NC(=S)NC3=C2C(=O)c2ccccc23)c1 (stereo not shown)",
    "melting point (°C)": 289.27
  },
  {
    "MOLECULE": "O=C1C2=C(NC(=S)NC2c2cccc(OCCO)c2)c2ccccc21 (stereo not shown)",
    "melting point (°C)": 261.08
  },
  {
    "MOLECULE": "COc1cccc(C2C3=C(NC(=S)N2C)c2ccccc2C3=O)c1 (stereo not shown)",
    "melting point (°C)": 286.94
  },
  {
    "MOLECULE": "COCCCOc1cccc([C@H]2NC(=O)NC3=C2C(=O)c2ccccc23)c1",
    "melting point (°C)": 206.47
  },
  {
    "MOLECULE": "COc1cccc([C@@H]2NC(=S)NC3=C2C(=O)c2ccccc23)c1",
    "melting point (°C)": 253.6
  }
]

State recorded melting point for all listed molecules.
1. O=C1C2=C(NC(=S)NC2c2cccc(CO)c2)c2ccccc21 (stereo not shown)
2. CC(=O)OCCCCOc1cccc(C2NC(=S)NC3=C2C(=O)c2ccccc23)c1 (stereo not shown)
3. COc1ccc(Oc2cccc(C3NC(=S)NC4=C3C(=O)c3ccccc34)c2)cc1 (stereo not shown)

Resp:
[265.63, 199.5, 269.04]

State recorded melting point for all listed molecules.
1. COCCCOc1cccc([C@@H]2NC(=O)NC3=C2C(=O)c2ccccc23)c1
2. COc1cccc(C2NC(=O)N(Cc3ccccc3)C3=C2C(=O)c2ccccc23)c1 (stereo not shown)
3. O=C1C2=C(NC(=S)NC2c2cncc(Br)c2)c2ccccc21 (stereo not shown)
4. O=C1C2=C(NC(=S)NC2c2cccc(O)c2)c2ccccc21 (stereo not shown)
5. COc1ccc(OC)c(C2NC(=S)NC3=C2C(=O)c2ccccc23)c1 (stereo not shown)
6. CN(C)CCCOc1cccc(C2NC(=S)NC3=C2C(=O)c2ccccc23)c1 (stereo not shown)
7. COc1cccc(C2NC(=S)NC3=C2C(=O)c2ccccc23)c1F (stereo not shown)

Resp:
1: 207.44; 2: 188.65; 3: 294.61; 4: 288.04; 5: 295.33; 6: 237.9; 7: 287.05

State recorded melting point for all listed molecules.
1. CCN(CC)CCOc1cccc(C2NC(=S)NC3=C2C(=O)c2ccccc23)c1 (stereo not shown)
2. COc1cc(OC)cc(C2NC(=S)NC3=C2C(=O)c2ccccc23)c1 (stereo not shown)
3. COc1cccc(C2NC(=S)NC3=C2C(=O)c2ccccc23)c1 (stereo not shown)

Resp:
1. 243.58
2. 287.08
3. 295.22

----------
Can you tell me IC50 for the items I'm about to list?
Biological target: hTRPA1 (Homo sapiens, UniProt O75762)
Sequence (O75762 whole entry): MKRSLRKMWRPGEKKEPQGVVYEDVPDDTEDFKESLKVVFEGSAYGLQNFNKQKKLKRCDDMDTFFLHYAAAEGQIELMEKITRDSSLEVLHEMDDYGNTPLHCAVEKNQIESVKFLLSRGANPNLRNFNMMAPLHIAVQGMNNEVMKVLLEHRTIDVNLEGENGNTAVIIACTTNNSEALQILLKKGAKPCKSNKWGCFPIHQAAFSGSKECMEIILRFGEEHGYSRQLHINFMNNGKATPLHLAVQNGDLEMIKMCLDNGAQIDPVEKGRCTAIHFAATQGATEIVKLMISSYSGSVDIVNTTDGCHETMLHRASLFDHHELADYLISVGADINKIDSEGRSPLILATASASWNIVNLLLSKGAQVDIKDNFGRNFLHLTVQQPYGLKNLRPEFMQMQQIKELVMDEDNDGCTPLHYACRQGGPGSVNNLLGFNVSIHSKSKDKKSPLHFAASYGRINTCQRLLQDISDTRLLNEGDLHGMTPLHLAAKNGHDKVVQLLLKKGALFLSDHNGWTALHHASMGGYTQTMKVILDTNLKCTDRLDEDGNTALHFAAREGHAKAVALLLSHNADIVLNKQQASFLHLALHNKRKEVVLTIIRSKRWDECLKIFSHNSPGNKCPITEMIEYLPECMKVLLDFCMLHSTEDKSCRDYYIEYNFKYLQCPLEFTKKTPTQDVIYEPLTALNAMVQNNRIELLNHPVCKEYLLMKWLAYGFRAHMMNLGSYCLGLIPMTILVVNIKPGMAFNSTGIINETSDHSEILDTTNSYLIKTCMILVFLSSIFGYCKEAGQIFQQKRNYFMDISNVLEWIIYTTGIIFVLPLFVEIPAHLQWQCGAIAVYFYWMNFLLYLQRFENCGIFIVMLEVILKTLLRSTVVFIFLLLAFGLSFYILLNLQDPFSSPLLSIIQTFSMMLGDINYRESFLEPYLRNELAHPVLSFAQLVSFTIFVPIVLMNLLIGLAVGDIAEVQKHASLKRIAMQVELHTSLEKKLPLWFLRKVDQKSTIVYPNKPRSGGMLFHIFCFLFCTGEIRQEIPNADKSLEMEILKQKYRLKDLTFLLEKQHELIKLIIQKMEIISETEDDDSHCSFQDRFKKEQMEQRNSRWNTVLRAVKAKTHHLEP
Assay: Ca2+ fluorometry TRPA1 antagonism in hTRPA1/TREx-HEK293 cells (FDSS)
Settings: 11H-dibenzo[b,e]azepine-10-carboxylic acid methyl ester as TRPA1 agonist (25 nM), hTRPA1-HEK cells, Fluo4-AM

Sample answers from the record:
[
  {
    "COMPOUND": "COc1cccc(C2NC(=S)N(C)C3=C2C(=O)c2ccccc23)c1 (stereo not drawn)",
    "ASSAYED SYSTEM": "hTRPA1 (Homo sapiens, UniProt O75762)",
    "IC50": "~85 nM"
  },
  {
    "COMPOUND": "O=C1C2=C(NC(=S)NC2c2cccc(-c3ccc(C(F)(F)F)cc3)c2)c2ccccc21 (stereo not drawn)",
    "ASSAYED SYSTEM": "hTRPA1 (Homo sapiens, UniProt O75762)",
    "IC50": "> 10000 nM"
  },
  {
    "COMPOUND": "COCCCOc1cccc(C2NC(=S)NC3=C2C(=O)c2ccccc23)c1 (stereo not drawn)",
    "ASSAYED SYSTEM": "hTRPA1 (Homo sapiens, UniProt O75762)",
    "IC50": "47 nM"
  },
  {
    "COMPOUND": "O=C1C2=C(NC(=S)NC2c2cccc3c2OCO3)c2ccccc21 (stereo not drawn)",
    "ASSAYED SYSTEM": "hTRPA1 (Homo sapiens, UniProt O75762)",
    "IC50": "~4410 nM"
  },
  {
    "COMPOUND": "COCCCOc1cccc([C@H]2NC(=S)NC3=C2C(=O)c2ccccc23)c1",
    "ASSAYED SYSTEM": "hTRPA1 (Homo sapiens, UniProt O75762)",
    "IC50": "~13 nM"
  }
]

Let us move to another entry and its IC50.
Req: Report IC50, nothing else, for this compound: COCCCOc1cccc([C@H]2NC(=O)NC3=C2C(=O)c2ccccc23)c1
Resp: 1320 nM
